system: pooled human IgG (human IgG1,2,3 and 4)
List of Enzyme Activity Endpoint Assay: IgG values.
observed property: Enzyme Activity Endpoint Assay: IgG (ng/µL)

{"protein": "PRT-491 (protein) MVTSVWTKGVTPPTDFIYGEDVLHAPYKAGQGWYDITKTFNGKDNLLCGAATAGNMLHWWFDQNKEQIENYLKKHPEKQKIIFNNQELFDLKAAIDTKDSQLDSKLFEYFKEKAFPYLSTKHLGVFPDHVIDMFINGYRLSLTNHGPTPVKRGSKDKRGGIFDAVFTRGVQSKLLTNRHDLKNKTLKEISDLIKQELTEGKALGISHTYANVRINHVINLWGADFDAEGNLEAIYVTDSDTNASIGMKKYFVGVNSNGKVAISAKEIEEDNIGAQVLGLFTLSTGQDIWNQTNLEHHHHHH", "observed property": "Enzyme Activity Endpoint Assay: IgG", "experimental result": 140}
{"protein": "PRT-180 (protein) MANQEIRYSEVTPYHVTSVWTKGVTPPANFTQGEDVFHAPYVANQGWYDITKTFNGKDDLLCGAATAGNMLHWWFDQNKDQIKRYLEEHPEKQKINFNGEQMFDVKEAIDTKNHQLDSKLFEYFKEKAFPYLSTKHLGVFPDHVIDMFINGYRLSLTNTQSTDVNEGSKDPRGGIFDAVFTRGDQSKLLTSRHDFKEKNLKEISDLIKKELTEGKALGLSHTYANVRINHVINLWGADFDSNGNLKAIYVTDSDSNASIGMKKYFVGVNSAGKVAISAKEIKEDNIGAQVLGLFTLSTGQDSWNQTN", "observed property": "Enzyme Activity Endpoint Assay: IgG", "experimental result": 0}
